Test system: giant foxtail (Setaria faberii)
Test: Test A postemergence, visual injury rating
Type: in vivo
Conditions: 31 g ai/ha, 0 to 100 scale (0 no effect, 100 complete control)
experimental-endpoint: Foxtail, Giant plant response rating
Numbers only.

>>> df
                                   compound                 experimental_endpoint  result_value
0  N#Cc1cccc(Oc2ncc(Cl)cn2)c1C(=O)CCCC(F)(F)F  Foxtail, Giant plant response rating            10
1  N#CC(CCCCC(F)(F)F)c1ccccc1Oc1ncc(Cl)cn1 (stereo not drawn)  Foxtail, Giant plant response rating            50
2  N#Cc1cccc(Oc2ncc(Cl)cn2)c1C(=O)CCC(F)(F)F  Foxtail, Giant plant response rating             0
3  O=C(CCCC(F)(F)F)c1c(Cl)cccc1Oc1ncc(Cl)cn1  Foxtail, Giant plant response rating            30
4     CCc1cccc(Oc2ncc(Cl)cn2)c1CCCCC(F)(F)F  Foxtail, Giant plant response rating            10

Query block: Would you mind telling me what Foxtail, Giant plant response rating value was observed for N#CC(CCCC(F)(F)F)c1ccccc1Oc1ncc(Cl)cn1 (stereo not drawn) ?
Result block: 60

* * *

System: wild mustard (Sinapis arvensis)
Experiment: Test C postemergence, plant response rating
Format: in vivo
Details: 125 g ai/ha, scale 0 to 100 (0 no effect, 100 complete control)
What Mustard, Wild plant response rating was measured for each of the following?
Answers are plain numbers.

Examples with their reported Mustard, Wild plant response rating follow.
>>> df
                                   molecule  result_value
0  O=C(CCCC(F)(F)F)c1c(Oc2ncc(Cl)cn2)cccc1C(F)(F)F [Compound 125]           100
1  N#CC(CCCC(F)(F)F)c1ccccc1Oc1ncc(Cl)cn1 (stereo not shown) [Compound 144]            95

Working through the 2 molecules below one at a time, give Mustard, Wild plant response rating for each.
1. N#Cc1cccc(Oc2ncc(Cl)cn2)c1COCCC(F)(F)F [Compound 80]
2. FC(F)(F)CCCCc1c(Br)cccc1Oc1ncc(Cl)cn1 [Compound 138]

Result block:
1. 90
2. 100

* * *

Tested on: oat, wild (wild oat Avena fatua)
Experiment: Test C postemergence, plant response rating
Type: in vivo
Settings: Avena fatua, post-emergence, 16 g ai/ha, scale 0 to 100
What pest or weed control at 16 g/ha was measured for each of the following?
One number for each entry, in %.

Examples with their reported pest or weed control at 16 g/ha follow.
                                   compound  result_value
0  O=C(OCCC(F)(F)F)c1c(Br)cccc1Oc1ncc(Cl)cn1            10
1  CC(CC(F)(F)F)OC(=O)c1c(Br)cccc1Oc1ncc(Cl)cn1 (stereo not shown)             0
2  O=C(OCC(F)(F)C(F)(F)F)c1c(Br)cccc1Oc1ncc(Cl)cn1             5

Let us examine a further case.
Query block: Would you mind telling me what pest or weed control at 16 g/ha value was observed for "O=C(OCCC(F)(F)F)c1c(Cl)cccc1Oc1ncc(Cl)cn1" ?
Result block: 5

* * *

Test system: kochia (Kochia scoparia)
Assay: Test A preemergence, visual injury rating
Format: in vivo
Conditions: 31 g ai/ha, 0 to 100 scale, 0 no effect, 100 complete control
What Plant response rating, Kochia was measured for each of the following?
Give bare numbers.

                                   compound          experimental_endpoint  result_value
0  C#CCOC(=O)c1c(Br)cccc1Oc1ncc(Cl)cn1 [Compound 108]  Plant response rating, Kochia             0
1  CCON=C(C)c1c(Br)cccc1Oc1ncc(Cl)cn1 [Compound 95]  Plant response rating, Kochia             0
2  N#Cc1cccc(Oc2ncc(Cl)cn2)c1COCC(F)(F)F [Compound 131]  Plant response rating, Kochia            10
3  O=C(OC(CCl)CCl)c1c(Br)cccc1Oc1ncc(Cl)cn1 [Compound 36]  Plant response rating, Kochia             0
4  FC(F)(F)CCCCCc1c(Br)cccc1Oc1ncc(Cl)cn1 [Compound 121]  Plant response rating, Kochia            20
5  Cc1ccc(Oc2ncc(Cl)cn2)c(C(=O)OCCC(F)(F)F)c1 [Compound 54]  Plant response rating, Kochia             0

Working through the 4 compounds below one at a time, give Plant response rating, Kochia for each.
1. Cc1cccc(Oc2ncc(Cl)cn2)c1C(=O)OCCC(F)(F)F [Compound 99]
2. N#Cc1cccc(Oc2ncc(Cl)cn2)c1C(=O)CCC(F)(F)F [Compound 142]
3. CCCCC(=O)c1c(C#N)cccc1Oc1ncc(Cl)cn1 [Compound 68]
4. CCCC(=O)c1c(C#N)cccc1Oc1ncc(Cl)cn1 [Compound 67]

Result block:
[40, 0, 0, 0]

* * *

Test system: pigweed (Amaranthus retroflexus)
Experiment: Test A postemergence, visual injury rating
Format: in vivo
Settings: Amaranthus retroflexus, post-emergence, 240 h, 125 g ai/ha, 0 is no effect, 100 is complete control, read-out: Pigweed plant response rating (0 to 100 scale)
What pest or weed control at 125 g/ha was measured for each of the following?

Examples with their reported pest or weed control at 125 g/ha follow.
                                   compound                   target_of_assay             experimental_endpoint  result_value
0  O=C(OCC(F)(F)C(F)(F)F)c1c(Br)cccc1Oc1ncc(Cl)cn1  pigweed (Amaranthus retroflexus)  pest or weed control at 125 g/ha          100%
1  CC(CC(F)(F)F)OC(=O)c1c(Br)cccc1Oc1ncc(Cl)cn1 (centres unmarked)  pigweed (Amaranthus retroflexus)  pest or weed control at 125 g/ha           90%
2       C=CCOC(=O)c1c(Br)cccc1Oc1ncc(Cl)cn1  pigweed (Amaranthus retroflexus)  pest or weed control at 125 g/ha          100%
3  O=C(OCCC(F)(F)F)c1cc(C(F)(F)F)ccc1Oc1ncc(Cl)cn1  pigweed (Amaranthus retroflexus)  pest or weed control at 125 g/ha            0%

Let us examine a further case.
Query block: Provide value of pest or weed control at 125 g/ha for this record tested with pigweed (Amaranthus retroflexus): "Cc1ccc(Oc2ncc(Cl)cn2)c(C(=O)OCCC(F)(F)F)c1"
Result block: 0%

* * *

Test system: blackgrass (Alopecurus myosuroides)
Test: Test C postemergence, plant response rating
Format: in vivo
Conditions: Alopecurus myosuroides, post-emergence, 31 g ai/ha, scale 0 to 100
What pest or weed control at 31 g/ha was measured for each of the following?
Give bare numbers, in %.

Examples with their reported pest or weed control at 31 g/ha follow.
In [3]: df
Out[3]:
                                   compound                      target_of_assay  result_value
0  O=C(OCCC(F)(F)F)c1c(Br)cccc1Oc1ncc(Cl)cn1 [Compound 26]  blackgrass (Alopecurus myosuroides)            15
1  C=CCCOC(=O)c1c(Br)cccc1Oc1ncc(Cl)cn1 [Compound 21]  blackgrass (Alopecurus myosuroides)             0
2  CCCOC(=O)c1c(Br)cccc1Oc1ncc(Cl)cn1 [Compound 13]  blackgrass (Alopecurus myosuroides)             5

Working through the 2 compounds below one at a time, give pest or weed control at 31 g/ha for each.
1. O=C(CCC(F)(F)F)c1c(Cl)cccc1Oc1ncc(Cl)cn1 [Compound 107]
2. CC(CC(F)(F)F)OC(=O)c1c(Br)cccc1Oc1ncc(Cl)cn1 (centres unmarked) [Compound 16]

Result block:
1. 20
2. 0

* * *

System: Italian ryegrass (Lolium multiflorum)
Assay: Test A postemergence, visual injury rating
Format: in vivo
Settings: 125 g ai/ha, 0 to 100 scale, 0 is no effect, 100 is complete control, approximately 10 days
experimental-endpoint: Ryegrass, Italian plant response rating

>>> df
                              sample_smiles  result_value
0  N#Cc1cccc(Oc2ncc(Cl)cn2)c1C(=O)CCC(F)(F)C(F)(F)F             0

Working through the 2 compounds below one at a time, give Ryegrass, Italian plant response rating for each.
1. CC(=NOC(C)C)c1c(Br)cccc1Oc1ncc(Cl)cn1
2. FC(F)(F)CCCCCc1c(Br)cccc1Oc1ncc(Cl)cn1

Result block:
1. 0
2. 20

* * *

Test system: galium (catchweed bedstraw, Galium aparine)
Test: Test A postemergence, visual injury rating
Type: in vivo
Conditions: 125 g ai/ha, 0 is no effect, 100 is complete control
Text: […]
Lab note: cut-off is 70. Strictly less in Galium plant response rating (0 to 100 scale) is Met. Exactly 70 or more is Not met.

Here are 3 molecules together with their reported answers.
In [3]: df
Out[3]:
                              sample_smiles                           target_of_assay  assigned_category
0   N#Cc1cccc(Oc2ncc(Cl)cn2)c1COCCCC(F)(F)F  galium (catchweed bedstraw, Galium aparine)            Not met
1  O=C(OCCC(F)(F)F)c1c(F)cccc1Oc1ncc(Cl)cn1  galium (catchweed bedstraw, Galium aparine)                Met
2  O=C(OCC(F)(F)F)c1c(Br)cccc1Oc1ncc(Cl)cn1  galium (catchweed bedstraw, Galium aparine)                Met

We next turn to a different molecule, shown below.
Query block: Quick check: Galium plant response rating (0 to 100 scale) of "O=C(OCCCC(F)(F)F)c1c(Oc2ncc(Cl)cn2)cccc1C(F)(F)F" under 70?
Result block: Met
